Attribution: patent US5550213A

biological target: urokinase (UK) (Homo sapiens); assay: Ki of inhibitors against urokinase, fractional enzyme activity assay (Empie and Laskowski) with chromogenic substrate S-2288; format: biochemical; set-up: purchased Abbott Pharmaceuticals; settings: non-linear regression with Enzfitter; read-out: Ki (nM), Ki VALUES OBTAINED BY NON-LINEAR REGRESSION FOR INHIBITORS AGAINST UK
Measured attribute: Ki (nM)
Give just the numeric value; nM need not be written.

get_value(item= P1-Arg: mutant with arginine at the P1 site of OM3TKY (VDCSEYPKPACTREYRPLCGSDNKTYGNKCNFCNAVVESNGTLTLSHFGKC) , readout=Ki) returns 1790
